Source: patent US20210238260

- experimental-target: Factor X (FX), P00742
- Sequence (P00742 whole entry, looked up): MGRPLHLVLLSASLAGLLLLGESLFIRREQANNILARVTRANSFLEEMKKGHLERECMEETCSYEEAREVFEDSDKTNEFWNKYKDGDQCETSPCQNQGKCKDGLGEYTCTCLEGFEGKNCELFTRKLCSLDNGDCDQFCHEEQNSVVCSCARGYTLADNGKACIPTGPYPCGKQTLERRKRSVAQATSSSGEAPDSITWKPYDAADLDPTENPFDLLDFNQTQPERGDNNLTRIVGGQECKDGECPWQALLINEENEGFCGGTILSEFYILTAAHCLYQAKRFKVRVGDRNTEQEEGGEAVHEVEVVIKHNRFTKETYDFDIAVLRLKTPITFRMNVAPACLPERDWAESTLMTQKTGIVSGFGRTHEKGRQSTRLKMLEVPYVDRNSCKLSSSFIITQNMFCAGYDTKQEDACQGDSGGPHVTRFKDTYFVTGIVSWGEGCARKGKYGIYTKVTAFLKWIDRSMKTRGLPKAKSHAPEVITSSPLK
readout: % of WT kcat/KM (%)
The response must be a number in % with no trailing unit.

IN: Which % of WT kcat/KM value belongs to FIXa-Y155F/R318Y/T343R/R403E (protein) chain 1: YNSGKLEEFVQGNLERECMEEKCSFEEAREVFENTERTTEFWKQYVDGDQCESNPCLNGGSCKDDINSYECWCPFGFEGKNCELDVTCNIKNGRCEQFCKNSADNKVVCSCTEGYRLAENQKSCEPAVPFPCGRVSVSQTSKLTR chain 2: VVGGEDAKPGQFPWQVVLNGKVDAFCGGSIVNEKWIVTAAHCVETGVKITVVAGEHNIEETEHTEQKRNVIRIIPHHNYNAAINKYNHDIALLELDEPLVLNSYVTPICIADKEYTNIFLKFGSGYVSGWGRVFHKGYSALVLQYLRVPLVDRATCLRSTKFRIYNNMFCAGFHEGGRDSCQGDSGGPHVTEVEGTSFLTGIISWGEECAMKGKYGIYTKVSEYVNWIKEKTKLT ?
OUT: 154

IN: Which % of WT kcat/KM value belongs to FIXa-D203N/F205T/R338A (protein) chain 1: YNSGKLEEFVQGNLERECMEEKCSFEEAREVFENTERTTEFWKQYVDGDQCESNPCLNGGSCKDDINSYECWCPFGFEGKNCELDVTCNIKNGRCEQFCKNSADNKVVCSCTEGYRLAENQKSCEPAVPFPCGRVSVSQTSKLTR chain 2: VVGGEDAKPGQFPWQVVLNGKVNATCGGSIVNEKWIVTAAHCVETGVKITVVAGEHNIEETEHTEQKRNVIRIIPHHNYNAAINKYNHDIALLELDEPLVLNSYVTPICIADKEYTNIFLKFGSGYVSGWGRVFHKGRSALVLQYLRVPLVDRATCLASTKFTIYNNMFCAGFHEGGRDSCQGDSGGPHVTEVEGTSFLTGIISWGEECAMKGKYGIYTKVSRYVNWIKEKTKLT ?
OUT: 139
